# target or system: Interleukin-23 receptor (Homo sapiens, UniProt Q5VWK5)
# Sequence (Q5VWK5 whole entry): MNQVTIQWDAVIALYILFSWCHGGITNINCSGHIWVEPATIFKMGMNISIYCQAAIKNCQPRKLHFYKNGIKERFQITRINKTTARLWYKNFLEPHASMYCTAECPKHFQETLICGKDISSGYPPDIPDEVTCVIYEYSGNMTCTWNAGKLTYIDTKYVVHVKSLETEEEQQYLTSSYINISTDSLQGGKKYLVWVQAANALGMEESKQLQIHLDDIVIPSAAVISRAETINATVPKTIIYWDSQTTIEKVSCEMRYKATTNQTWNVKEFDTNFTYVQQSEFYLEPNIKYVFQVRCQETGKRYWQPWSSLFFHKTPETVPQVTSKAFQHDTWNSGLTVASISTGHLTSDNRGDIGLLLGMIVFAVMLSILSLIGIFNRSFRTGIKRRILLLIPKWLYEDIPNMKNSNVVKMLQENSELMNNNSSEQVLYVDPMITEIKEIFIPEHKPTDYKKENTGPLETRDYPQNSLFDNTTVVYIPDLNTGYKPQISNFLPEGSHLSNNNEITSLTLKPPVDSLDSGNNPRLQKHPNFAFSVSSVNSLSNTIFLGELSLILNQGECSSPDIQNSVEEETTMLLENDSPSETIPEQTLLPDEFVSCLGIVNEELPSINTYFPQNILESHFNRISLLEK
# test: Inhibition of interleukin-23 binding to human interleukin-23 receptor incubated for 2 hrs by competitive binding ELISA
observation type: IC50

>  <structure smiles string>
CC(=O)N[C@@H](C)C(=O)N[C@H](C(=O)N[C@@H](CC(=O)O)C(=O)N[C@@H](Cc1c[nH]c2ccccc12)C(=O)N[C@H](C(=O)N[C@H](C(=O)N[C@@H](Cc1ccc(O)cc1)C(=O)N[C@@H](Cc1c[nH]c2ccccc12)C(=O)N[C@@H](CCCN)C(=O)N[C@@H](CN)C(=O)N[C@@H](Cc1ccccc1)C(=O)NCC(=O)NCCOCC(=O)N[C@H](CCCCN)C(N)=O)C(C)(C)S)C(C)C)C(C)(C)S

>  <IC50>
> 30000 nM

$$$$
>  <structure smiles string>
CC(=O)N[C@@H](CS)C(=O)N[C@@H](CCCNC(=N)N)C(=O)N[C@@H](CC(=O)O)C(=O)N[C@@H](Cc1c[nH]c2ccccc12)C(=O)N[C@@H](CCC(N)=O)C(=O)N[C@@H](CS)C(=O)N[C@@H](Cc1ccc(O)cc1)C(=O)N[C@@H](Cc1c[nH]c2ccccc12)C(=O)N[C@H](CCCNC(=N)N)C(=O)N[C@@H](CCCCN)C(=O)N[C@@H](Cc1ccccc1)C(=O)NCC(=O)NCCOCCC(=O)N[C@H](CCCCN)C(N)=O

>  <IC50>
> 1000 nM

$$$$

Now let's try a different one.
Qu. Could you tell me which IC50 is on file for `CC(=O)N[C@H](CCCCN)C(=O)N[C@@H](CO)C(=O)N[C@@H](CS)C(=O)N[C@@H](C)C(=O)N[C@@H](CC(=O)O)C(=O)N[C@@H](Cc1c[nH]c2ccccc12)C(=O)N[C@H](C(=O)N[C@@H](CS)C(=O)N[C@@H](Cc1ccc(O)cc1)C(=O)N[C@@H](Cc1c[nH]c2ccccc12)C(=O)N[C@@H](Cc1cnc[nH]1)C(=O)N[C@H](C(=O)N[C@@H](Cc1ccccc1)C(=O)NCC(=O)O)[C@@H](C)O)C(C)C` ?
Ans. > 1000 nM
